Experiment: Plasma pharmacokinetics of ceralasertib (HPLC-MS/MS, NCA)
Type: in vivo, human
Condition context: human, plasma, oral, 240 mg, 240 mg day 15; […]; read-out: Plasma concentration, individual patients
Description: Intensive PK sampling in part A occurred after a single dose from predose up to 24 to 72 hours and again at day 15 and day 29 of continuous dosing. Participants fasted for 1 hour before and 2 hours after dosing for PK assessment. In part B, sampling coincided with day 15 PD assessments. […] Evaluated PK […] maximum observed plasma concentration (Cmax), time to Cmax (tmax), and apparent terminal half-life (t1/2) calculated as ln/lambda-z where lambda-z (lz) is the apparent terminal phase rate- […]
Attribute measured: concentration at […] (ng/mL)
Write the number in ng/mL without appending the unit.

Provide only the value of recorded concentration at […] for C[C@@H]1COCCN1c1cc(C2([S@](C)(=N)=O)CC2)nc(-c2cc[nH]c3nccc2-3)n1 [ceralasertib]
11200

---

Experiment: Plasma pharmacokinetics of ceralasertib (HPLC-MS/MS, NCA)
Type: in vivo, human
Condition context: human, plasma, oral; 40 and 80 mg dose levels; read-out: Mean terminal elimination half-life
Attribute measured: half-life

Provide only the value of recorded half-life for C[C@@H]1COCCN1c1cc(C2([S@](C)(=N)=O)CC2)nc(-c2cc[nH]c3nccc2-3)n1 [ceralasertib]
318 to 462 min

---

Experiment: Plasma pharmacokinetics of ceralasertib (HPLC-MS/MS, NCA)
Type: in vivo, human
Condition context: human, plasma, oral, 160 mg, 160 mg day 0; 0 h; read-out: Plasma concentration, individual patients
Experimental: Intensive PK sampling in part A occurred after a single dose from predose up to 24 to 72 hours and again at day 15 and day 29 of continuous dosing. Participants fasted for 1 hour before and 2 hours after dosing for PK assessment. In part B, sampling coincided with day 15 PD assessments. […] Evaluated PK […] maximum observed plasma concentration (Cmax), time to Cmax (tmax), and apparent terminal half-life (t1/2) calculated as ln/lambda-z where lambda-z (lz) is the apparent terminal phase rate- […]
Attribute measured: concentration at 0 h (ng/mL)
Write the number in ng/mL without appending the unit.

Provide only the value of recorded concentration at 0 h for C[C@@H]1COCCN1c1cc(C2([S@](C)(=N)=O)CC2)nc(-c2cc[nH]c3nccc2-3)n1
0

---

Experiment: Change in full blood count parameters with time (bone marrow toxicity)
Format: in vivo, human
Condition context: patient B466, part B, 160mg (intermittent), C26D15, relative day 589
Attribute measured: Hb

Provide only the value of recorded Hb for C[C@@H]1COCCN1c1cc(C2([S@](C)(=N)=O)CC2)nc(-c2cc[nH]c3nccc2-3)n1
101 g/L

---

Experiment: Plasma pharmacokinetics of ceralasertib (HPLC-MS/MS, NCA)
Assay type: in vivo, human
Condition context: human, plasma, oral, 240 mg, 240 mg day 15; 4 h; read-out: Plasma concentration, individual patients
Attribute measured: concentration at 4 h (ng/mL)
Write the number in ng/mL without appending the unit.

Provide only the value of recorded concentration at 4 h for C[C@@H]1COCCN1c1cc(C2([S@](C)(=N)=O)CC2)nc(-c2cc[nH]c3nccc2-3)n1
13500

---

Experiment: Plasma pharmacokinetics of ceralasertib (HPLC-MS/MS, NCA)
Assay type: in vivo, human
Condition context: human, plasma, oral, 240 mg, 240 mg day 15; 1 h; read-out: Plasma concentration, individual patients
Attribute measured: concentration at 1 h (ng/mL)
Write the number in ng/mL without appending the unit.

Provide only the value of recorded concentration at 1 h for C[C@@H]1COCCN1c1cc(C2([S@](C)(=N)=O)CC2)nc(-c2cc[nH]c3nccc2-3)n1
17000

---

Experiment: Plasma pharmacokinetics of ceralasertib (HPLC-MS/MS, NCA)
Format: in vivo, human
Condition context: human, plasma, oral, 40 mg, 40 mg day 0; 4 h; read-out: Plasma concentration, individual patients
Attribute measured: concentration at 4 h (ng/mL)
Write the number in ng/mL without appending the unit.

Provide only the value of recorded concentration at 4 h for C[C@@H]1COCCN1c1cc(C2([S@](C)(=N)=O)CC2)nc(-c2cc[nH]c3nccc2-3)n1
1450

---

Experiment: Plasma pharmacokinetics of ceralasertib (HPLC-MS/MS, NCA)
Assay type: in vivo, human
Condition context: human, plasma, oral, 20 mg, 20 mg day 0; 0 h; read-out: Plasma concentration, individual patients
Attribute measured: concentration at 0 h (ng/mL)
Write the number in ng/mL without appending the unit.

Provide only the value of recorded concentration at 0 h for C[C@@H]1COCCN1c1cc(C2([S@](C)(=N)=O)CC2)nc(-c2cc[nH]c3nccc2-3)n1
0

---

Experiment: Plasma pharmacokinetics of ceralasertib (HPLC-MS/MS, NCA)
Type: in vivo, human
Condition context: human, plasma, oral, 240 mg, 240 mg day 15; 12 h; read-out: Plasma concentration, individual patients
Protocol: Intensive PK sampling in part A occurred after a single dose from predose up to 24 to 72 hours and again at day 15 and day 29 of continuous dosing. Participants fasted for 1 hour before and 2 hours after dosing for PK assessment. In part B, sampling coincided with day 15 PD assessments. […] Evaluated PK […] maximum observed plasma concentration (Cmax), time to Cmax (tmax), and apparent terminal half-life (t1/2) calculated as ln/lambda-z where lambda-z (lz) is the apparent terminal phase rate- […]
Attribute measured: concentration at 12 h (ng/mL)
Write the number in ng/mL without appending the unit.

Provide only the value of recorded concentration at 12 h for C[C@@H]1COCCN1c1cc(C2([S@](C)(=N)=O)CC2)nc(-c2cc[nH]c3nccc2-3)n1
9080

---

Experiment: Plasma pharmacokinetics of ceralasertib (HPLC-MS/MS, NCA)
Type: in vivo, human
Condition context: human, plasma, oral, 240 mg, 240 mg day 15; 0.5 h; read-out: Plasma concentration, individual patients
Attribute measured: concentration at 0.5 h (ng/mL)
Write the number in ng/mL without appending the unit.

Provide only the value of recorded concentration at 0.5 h for C[C@@H]1COCCN1c1cc(C2([S@](C)(=N)=O)CC2)nc(-c2cc[nH]c3nccc2-3)n1
13500

---

Experiment: Plasma pharmacokinetics of ceralasertib (HPLC-MS/MS, NCA)
Assay type: in vivo, human
Condition context: human, plasma, oral, 80 mg, 80 mg day 0; […]; read-out: Plasma concentration, individual patients
Procedure: Intensive PK sampling in part A occurred after a single dose from predose up to 24 to 72 hours and again at day 15 and day 29 of continuous dosing. Participants fasted for 1 hour before and 2 hours after dosing for PK assessment. In part B, sampling coincided with day 15 PD assessments. […] Evaluated PK […] maximum observed plasma concentration (Cmax), time to Cmax (tmax), and apparent terminal half-life (t1/2) calculated as ln/lambda-z where lambda-z (lz) is the apparent terminal phase rate- […]
Attribute measured: concentration at […] (ng/mL)
Write the number in ng/mL without appending the unit.

Provide only the value of recorded concentration at […] for C[C@@H]1COCCN1c1cc(C2([S@](C)(=N)=O)CC2)nc(-c2cc[nH]c3nccc2-3)n1
0

---

Experiment: Change in full blood count parameters with time (bone marrow toxicity)
Type: in vivo, human
Condition context: patient B466, part B, 160mg (intermittent), C29D15, relative day 645
Attribute measured: Hb (g/L)
Write the number in g/L without appending the unit.

Provide only the value of recorded Hb for C[C@@H]1COCCN1c1cc(C2([S@](C)(=N)=O)CC2)nc(-c2cc[nH]c3nccc2-3)n1 [ceralasertib]
100

---

Experiment: Plasma pharmacokinetics of ceralasertib (HPLC-MS/MS, NCA)
Assay type: in vivo, human
Condition context: human, plasma, oral, 80 mg, 80 mg day 0; 0 h; read-out: Plasma concentration, individual patients
Attribute measured: concentration at 0 h (ng/mL)
Write the number in ng/mL without appending the unit.

Provide only the value of recorded concentration at 0 h for C[C@@H]1COCCN1c1cc(C2([S@](C)(=N)=O)CC2)nc(-c2cc[nH]c3nccc2-3)n1 [ceralasertib]
0

---

Experiment: Plasma pharmacokinetics of ceralasertib (HPLC-MS/MS, NCA)
Type: in vivo, human
Condition context: human, plasma, oral, 20 mg, 20 mg day 0; 8 h; read-out: Plasma concentration, individual patients
Attribute measured: concentration at 8 h (ng/mL)
Write the number in ng/mL without appending the unit.

Provide only the value of recorded concentration at 8 h for C[C@@H]1COCCN1c1cc(C2([S@](C)(=N)=O)CC2)nc(-c2cc[nH]c3nccc2-3)n1 [ceralasertib]
562

---

Experiment: Plasma pharmacokinetics of ceralasertib (HPLC-MS/MS, NCA)
Assay type: in vivo, human
Condition context: human, plasma, oral, 40 mg, 40 mg day 1; 8 h; read-out: Plasma concentration, individual patients
Attribute measured: concentration at 8 h (ng/mL)
Write the number in ng/mL without appending the unit.

Provide only the value of recorded concentration at 8 h for C[C@@H]1COCCN1c1cc(C2([S@](C)(=N)=O)CC2)nc(-c2cc[nH]c3nccc2-3)n1 [ceralasertib]
996

Taken from paper PMC10786692.
